test: Hydrogen peroxide scavenging assay; settings: at 0.312 mg/ml, 20 min, 230 nm, mean ± SD (n = 3)
H2O2 Scavenging for assorted compounds
Record the value in %, omitting the unit from your answer.

Item COc1ccc(NCc2cc(=O)c(O)cn2C)cc1 [Compound 2] : provide H2O2 Scavenging
64.97

----------
test: Hydrogen peroxide scavenging assay; conditions: at 0.312 mg/ml, 20 min, 230 nm, mean ± SD (n = 3)
OBSERVATION TYPE: H2O2 Scavenging (%)
Provide the reading as a plain figure in %.

Answered examples (3):
Cc1cc(C(C)(C)C)c(O)c(C(C)(C)C)c1 [BHT, Butylated hydroxyl toluene, reference compound] = 78.52
O=C(O)c1cc(O)c(O)c(O)c1 [Galic acid, gallic acid, reference compound] = 97.39
O=c1cc(CNc2cccc([N+](=O)[O-])c2)[nH]cc1O [Compound 11] = 61.77

Please look at the following compound next.
Using known records, supply H2O2 Scavenging for Cn1cc(O)c(=O)cc1CNc1ccc(O)cc1 [Compound 3]
63.70
